system: HepG2 cells; test: HepG2 cytotoxicity assay; conditions: read-out: HepG2 cytotoxicity assay IC50; dose response confirmation
Would you kindly list IC50 for each of these compounds?
Return type: number; implicit unit µM.

Query: # query: IC50 of entry CCOc1ccc2[nH]c(C)cc(=NN=Cc3cccnc3)c2c1
Reply: 15.1

Query: # query: IC50 of entry COc1cc(-c2cc(-c3ccc(S(C)(=O)=O)cc3)cnc2N)ccc1O
Reply: 57.5

Query: # query: IC50 of entry CCC(CC)n1c(C)cc2c3c(N)nc(N)nc3ccc21
Reply: 0.0017

Query: # query: IC50 of entry Cc1[nH]c(C)c(-c2ccc(-c3ccc(C(F)(F)F)cc3C(F)(F)F)nc2)c(=O)c1Br
Reply: 7.41

Query: # query: IC50 of entry COc1ccc(Cc2c(N)nc3nc(N)nc(N)c3c2C)cc1.Cl
Reply: 0.055
